biological target: Motilin receptor (Homo sapiens); further: assay procedure not described here
Sequence (O43193 whole entry): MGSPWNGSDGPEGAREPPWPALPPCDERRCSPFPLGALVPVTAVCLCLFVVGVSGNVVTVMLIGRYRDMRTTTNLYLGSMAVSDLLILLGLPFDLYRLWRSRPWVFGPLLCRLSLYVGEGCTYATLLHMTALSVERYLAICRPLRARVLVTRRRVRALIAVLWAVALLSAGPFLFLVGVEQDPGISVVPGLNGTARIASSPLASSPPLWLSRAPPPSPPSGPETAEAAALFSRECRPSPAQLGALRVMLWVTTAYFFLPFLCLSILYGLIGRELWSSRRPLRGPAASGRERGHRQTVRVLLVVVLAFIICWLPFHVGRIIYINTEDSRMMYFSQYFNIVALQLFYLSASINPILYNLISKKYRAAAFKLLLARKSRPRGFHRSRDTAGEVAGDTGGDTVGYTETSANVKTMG
observation-type: AC50

For orientation, consider the following solved cases.
# compound, AC50
rows = [
    ("CN1CC[C@]23CCCC[C@H]2[C@H]1Cc1ccc(O)cc13", "> 10 µM"),
    ("CC(C)(C(=O)c1cccnc1)c1cccnc1", "> 10 µM"),
    ("OCCN1CCN(CCCN2c3ccccc3C=Cc3ccccc32)CC1", "> 30 µM"),
    ("O=C(O)CCCc1ccccc1", "> 10 µM"),
    ("CC(C(O)c1ccc(O)cc1)N1CCC(Cc2ccccc2)CC1 (stereo unspecified)", "> 30 µM"),
]

Attention now turns to another entry.
Form field AC50, entry C#CCN[C@@H]1CCc2ccccc21 : > 30 µM
